Reference source: patent US20080241904A1

Tested on: α-isomaltosylglucosaccharide-forming enzyme from Bacillus globisporus C11 strain
Experiment: Specificity of saccharide transferring reaction acceptor, enzyme of Strain C11
Assay type: biochemical
Parameters: key: −: no saccharide-transferred product was detected through transferring reaction to acceptor; ±: a saccharide-transferred product was detected in an amount of less than one percent through transfer reaction to acceptor; +: a saccharide-transferred product was detected in an amount of at least one percent but less than ten percent through transferring reaction to acceptor; ++: a saccharide-transferred product was detected in an amount of at least ten percent through transferring reaction to acceptor
Conditions: 1.6% acceptor, 4% PINE-DEX #100 as donor, one unit/g donor, 30° C., pH 6.0, 24 hours; GLC or HPLC
measure-name: Product of saccharide transferring reaction, Enzyme of Strain C11

[[record]]
compound = "C[C@H](O)[C@H](O)[C@@H](O)[C@@H](O)C=O [L-Rhamnose, L-rhamnose]"
subject_of_test = "α-isomaltosylglucosaccharide-forming enzyme from Bacillus globisporus C11 strain"
observed_value = "−"

[[record]]
compound = "OC[C@H]1O[C@@H]2O[C@H]3[C@H](O)[C@@H](O)[C@@H](O[C@H]4[C@H](O)[C@@H](O)[C@@H](O[C@H]5[C@H](O)[C@@H](O)[C@@H](O[C@H]6[C@H](O)[C@@H](O)[C@@H](O[C@H]7[C@H](O)[C@@H](O)[C@@H](O[C@H]1[C@H](O)[C@H]2O)O[C@@H]7CO)O[C@@H]6CO)O[C@@H]5CO)O[C@@H]4CO)O[C@@H]3CO [α-Cyclodextrin, α-cyclodextrin]"
subject_of_test = "α-isomaltosylglucosaccharide-forming enzyme from Bacillus globisporus C11 strain"
observed_value = "−"

